measured.on: Neuronal acetylcholine receptor; alpha4/beta4 (Rattus norvegicus, UniProt P09483+P12392)
Sequence (P09483 whole entry): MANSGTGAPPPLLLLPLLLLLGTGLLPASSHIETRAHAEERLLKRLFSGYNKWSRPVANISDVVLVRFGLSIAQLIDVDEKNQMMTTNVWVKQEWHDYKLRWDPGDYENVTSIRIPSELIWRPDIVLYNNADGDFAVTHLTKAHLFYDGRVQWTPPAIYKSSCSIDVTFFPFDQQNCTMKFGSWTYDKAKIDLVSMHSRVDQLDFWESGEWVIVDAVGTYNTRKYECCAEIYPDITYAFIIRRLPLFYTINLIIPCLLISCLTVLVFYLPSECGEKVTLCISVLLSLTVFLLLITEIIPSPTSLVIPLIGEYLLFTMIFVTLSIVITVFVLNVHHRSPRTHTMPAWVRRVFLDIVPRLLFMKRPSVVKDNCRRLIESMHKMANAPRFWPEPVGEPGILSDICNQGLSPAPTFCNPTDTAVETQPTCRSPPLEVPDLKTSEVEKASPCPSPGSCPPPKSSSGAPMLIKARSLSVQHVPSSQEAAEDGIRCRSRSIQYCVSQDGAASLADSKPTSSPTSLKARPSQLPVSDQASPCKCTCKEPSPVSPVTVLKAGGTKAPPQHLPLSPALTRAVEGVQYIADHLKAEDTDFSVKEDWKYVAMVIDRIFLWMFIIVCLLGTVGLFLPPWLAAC
Sequence (P12392 whole entry): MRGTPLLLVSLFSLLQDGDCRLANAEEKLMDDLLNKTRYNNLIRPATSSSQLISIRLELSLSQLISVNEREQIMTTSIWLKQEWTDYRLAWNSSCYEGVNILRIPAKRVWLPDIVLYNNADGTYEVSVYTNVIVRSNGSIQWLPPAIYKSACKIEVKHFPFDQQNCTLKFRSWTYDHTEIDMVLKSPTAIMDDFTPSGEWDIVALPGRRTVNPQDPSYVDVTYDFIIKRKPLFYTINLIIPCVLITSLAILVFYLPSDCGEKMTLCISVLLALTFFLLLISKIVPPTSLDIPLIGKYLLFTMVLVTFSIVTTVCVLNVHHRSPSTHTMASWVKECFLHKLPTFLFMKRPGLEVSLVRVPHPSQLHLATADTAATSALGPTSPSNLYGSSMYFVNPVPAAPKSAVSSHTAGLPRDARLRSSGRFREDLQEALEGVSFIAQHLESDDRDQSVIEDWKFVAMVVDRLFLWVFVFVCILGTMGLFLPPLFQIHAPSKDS
test.description: Displacement of [3H]epibatidine from rat alpha4beta4 nAChR expressed in HEK293 cells
experimental.endpoint: Ki (nM)
Numbers only, in nM.

State the recorded Ki for this entry: CN1C2CCC1C(c1cncc(-c3ccc(F)nc3)c1)C2 (single isomer, unassigned; (-))
0.31

Entry CN1[C@@H]2CC[C@@H]1[C@@H](c1cncc(-c3cccnc3F)c1)C2 (stereo in doubt; (-)-6b) please
0.71

Your task in this section: give Ki for each listed record.
1. CN1[C@@H]2CC[C@@H]1[C@@H](c1cncc(-c3cccc(F)n3)c1)C2 (stereo in doubt; (-)-6c)
2. CN1[C@@H]2CC[C@@H]1[C@@H](c1cncc(-c3ccnc(F)c3)c1)C2 (stereo in doubt; (-)-6a)

6.2
0.58

====

test.description: Displacement of [3H]epibatidine from nAChR in rat cerebral cortex membrane
Assay type: cell membranes
Lab note - cut at 0.1 nM for Ki: 1 if strictly below, -1 if not.

hey, is Ki for CN1C2CCC1C(c1cncc(-c3ccc(F)nc3)c1)C2 (single isomer, unassigned; (-)) lower than 0.1 nM or not?
1

Entry CN1[C@@H]2CC[C@@H]1[C@@H](c1cncc(-c3cccnc3F)c1)C2 (racemic) please
-1

Entry CN1[C@@H]2CC[C@@H]1[C@@H](c1cncc(-c3ccnc(F)c3)c1)C2 (stereo in doubt; (-)-6a) please
-1

Entry Clc1ccc(C2CC3CCC2N3)cn1 (stereo unspecified) [EPIBATIDINE] please
1

Entry CN1[C@@H]2CC[C@@H]1[C@@H](c1cncc(-c3ccnc(F)c3)c1)C2 (stereo in doubt; (+)-6a) please
-1

Entry CN1[C@@H]2CC[C@@H]1[C@@H](c1cncc(-c3cccnc3F)c1)C2 (stereo in doubt; (-)-6b) please
1

====

test.description: Metabolic stability in iv dosed baboon blood after 60 mins
Type: ADME, organism-based
condition.details: papio anubis, read-out: Stability
experimental.endpoint: remaining at 1 h (%)
Give bare numbers, in %.

State the recorded remaining at 1 h for this entry: CN1[C@@H]2CC[C@@H]1[C@@H](c1cncc(-c3cccc([18F])n3)c1)C2
14.9

====

test.description: Half life in rhesus monkey thalamus
Format: ADME, organism-based, Macaca mulatta
experimental.endpoint: half-life (h)
One number for each entry, in h.

State the recorded half-life for this entry: [18F]c1ncccc1OC[C@@H]1CCN1
4.5

====

Task for the reader: assign each of the following molecules its reported Ki.
test.description: Displacement of [3H]epibatidine from nAChR in rat cerebral cortex membrane
Format: cell membranes
Give bare numbers, in nM.

State the recorded Ki for this entry: CN1[C@@H]2CC[C@@H]1[C@@H](c1cncc(-c3cccc(F)n3)c1)C2 (stereo in doubt; (-)-6c)
0.31

Entry CN1[C@@H]2CC[C@@H]1[C@@H](c1cncc(-c3cccc(F)n3)c1)C2 (stereo in doubt; (+)-6c) please
4.67

Entry CN1[C@@H]2CC[C@@H]1[C@@H](c1cncc(-c3cccnc3F)c1)C2 (stereo in doubt; (+)-6b) please
7.35

Here's the next entry for you.
State the recorded Ki for this entry: CN1C2CCC1C(c1cncc(-c3ccc([18F])nc3)c1)C2 (single isomer, unassigned; (+))
2.1

====

test.description: Metabolic stability in CD1 mouse brain at 1.5 MBq, iv after 30 mins
Type: ADME, organism-based
condition.details: read-out: Stability
experimental.endpoint: remaining at 0.5 h (%)
One number for each entry, in %.

State the recorded remaining at 0.5 h for this entry: CN1[C@@H]2CC[C@@H]1[C@@H](c1cncc(-c3cccc([18F])n3)c1)C2
92.5

====

Task for the reader: assign each of the following molecules its reported pKi.
measured.on: Neuronal acetylcholine receptor; alpha2/beta4 (Rattus norvegicus, UniProt P12389+P12392)
Sequence (P12392 whole entry, one chain of several): as the sequence (P12392 whole entry) above
test.description: Displacement of [3H]epibatidine from rat alpha2beta4 nAChR expressed in HEK293 cells
Answers are plain numbers, as −log10 of the molar value.

Some molecules with known pKi results, for comparison:
State the recorded pKi for this entry: CN1[C@@H]2CC[C@@H]1[C@@H](c1cncc(-c3cccc(F)n3)c1)C2 (stereo in doubt; (-)-6c)
8.11

Entry CN1[C@@H]2CC[C@@H]1[C@@H](c1cncc(-c3cccnc3F)c1)C2 (stereo in doubt; (-)-6b) please
9.18

Entry CN1[C@@H]2CC[C@@H]1[C@@H](c1cncc(-c3ccnc(F)c3)c1)C2 (stereo in doubt; (-)-6a) please
9.08

Entry CN1C2CCC1C(c1cncc(-c3ccc(F)nc3)c1)C2 (single isomer, unassigned; (-)) please
9.29

Continuing:
State the recorded pKi for this entry: [18F]c1ncccc1OC[C@@H]1CCN1
6.74

====

Task for the reader: assign each of the following compounds its reported pKi.
measured.on: Neuronal acetylcholine receptor subunit alpha-2 (Rattus norvegicus, UniProt P12389+P12390)
Sequence (P12389 whole entry, one chain of several): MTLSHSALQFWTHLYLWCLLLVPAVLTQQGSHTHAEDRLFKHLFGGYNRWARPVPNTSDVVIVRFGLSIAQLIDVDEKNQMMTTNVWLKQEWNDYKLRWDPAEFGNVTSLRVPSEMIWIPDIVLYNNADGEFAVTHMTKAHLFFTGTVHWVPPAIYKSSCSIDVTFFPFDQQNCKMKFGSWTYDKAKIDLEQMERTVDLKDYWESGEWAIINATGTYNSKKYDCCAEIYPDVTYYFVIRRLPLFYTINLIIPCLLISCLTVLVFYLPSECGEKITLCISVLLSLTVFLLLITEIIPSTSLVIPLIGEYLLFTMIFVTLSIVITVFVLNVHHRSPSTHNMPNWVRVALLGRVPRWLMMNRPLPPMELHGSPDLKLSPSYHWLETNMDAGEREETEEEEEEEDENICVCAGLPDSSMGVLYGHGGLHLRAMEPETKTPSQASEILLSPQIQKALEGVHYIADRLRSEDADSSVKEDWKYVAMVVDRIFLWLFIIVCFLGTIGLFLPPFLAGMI
test.description: Displacement of [3H]epibatidine from rat alpha2beta2 nAChR expressed in HEK293 cells
One number for each entry, as −log10 of the molar value.

Some compounds with known pKi results, for comparison:
State the recorded pKi for this entry: CN1[C@@H]2CC[C@@H]1[C@@H](c1cncc(-c3ccnc(F)c3)c1)C2 (stereo in doubt; (-)-6a)
10.82

Entry CN1C2CCC1C(c1cncc(-c3ccc(F)nc3)c1)C2 (single isomer, unassigned; (-)) please
11.05

Entry CN1[C@@H]2CC[C@@H]1[C@@H](c1cncc(-c3cccc(F)n3)c1)C2 (stereo in doubt; (-)-6c) please
9.59

Entry [18F]c1ncccc1OC[C@@H]1CCN1 please
8.84

Here's the next entry for you.
State the recorded pKi for this entry: CN1[C@@H]2CC[C@@H]1[C@@H](c1cncc(-c3cccnc3F)c1)C2 (stereo in doubt; (-)-6b)
10.47

====

test.description: Lipophilicity, log D at pH 7.4
Assay type: physicochemical
condition.details: buffer
experimental.endpoint: logD
Give bare numbers.

State the recorded logD for this entry: CN1[C@@H]2CC[C@@H]1[C@@H](c1cncc(-c3cccnc3F)c1)C2 (racemic)
0.67

Entry CN1[C@@H]2CC[C@@H]1[C@@H](c1cncc(-c3ccnc(F)c3)c1)C2 (racemic) please
0.74

Entry CN1C2CCC1C(c1cncc(-c3ccc(F)nc3)c1)C2 (single isomer, unassigned; (-)) please
0.46

Here's the next entry for you.
State the recorded logD for this entry: CN1[C@@H]2CC[C@@H]1[C@@H](c1cncc(-c3cccc(F)n3)c1)C2 (stereo in doubt; (-)-6c)
0.99

====

Task for the reader: assign each of the following compounds its reported Ki.
measured.on: Neuronal acetylcholine receptor; alpha3/beta4 (Rattus norvegicus, UniProt P04757+P12392)
Sequence (P04757 whole entry): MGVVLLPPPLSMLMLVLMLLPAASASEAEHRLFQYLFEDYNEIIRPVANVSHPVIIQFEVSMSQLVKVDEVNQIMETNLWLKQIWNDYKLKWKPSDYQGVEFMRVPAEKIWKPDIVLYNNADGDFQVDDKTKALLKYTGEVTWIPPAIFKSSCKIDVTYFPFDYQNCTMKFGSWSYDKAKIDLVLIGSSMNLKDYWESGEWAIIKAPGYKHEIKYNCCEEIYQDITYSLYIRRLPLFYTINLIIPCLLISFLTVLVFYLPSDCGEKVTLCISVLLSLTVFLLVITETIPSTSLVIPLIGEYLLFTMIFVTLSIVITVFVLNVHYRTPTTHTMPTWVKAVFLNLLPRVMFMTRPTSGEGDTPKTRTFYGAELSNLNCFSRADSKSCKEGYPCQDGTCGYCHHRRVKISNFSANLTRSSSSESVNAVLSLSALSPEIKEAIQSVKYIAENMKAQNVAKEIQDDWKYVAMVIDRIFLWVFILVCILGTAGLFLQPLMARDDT
Sequence (P12392 whole entry): as the sequence (P12392 whole entry) above
test.description: Displacement of [3H]epibatidine from rat alpha3beta4 nAChR expressed in HEK293 cells
Give bare numbers, in µM.

State the recorded Ki for this entry: CN1[C@@H]2CC[C@@H]1[C@@H](c1cncc(-c3cccc(F)n3)c1)C2 (stereo in doubt; (-)-6c)
0.31

Your task in this section: give Ki for each listed record.
1. CN1[C@@H]2CC[C@@H]1[C@@H](c1cncc(-c3cccnc3F)c1)C2 (stereo in doubt; (-)-6b)
2. [18F]c1ncccc1OC[C@@H]1CCN1
3. CN1[C@@H]2CC[C@@H]1[C@@H](c1cncc(-c3ccnc(F)c3)c1)C2 (stereo in doubt; (-)-6a)
4. CN1C2CCC1C(c1cncc(-c3ccc(F)nc3)c1)C2 (single isomer, unassigned; (-))

[0.041, 3.68, 0.039, 0.03]

====

measured.on: Neuronal acetylcholine receptor subunit alpha-6 (Rattus norvegicus, UniProt P12390+P43143)
Sequence (P43143 whole entry, one chain of several): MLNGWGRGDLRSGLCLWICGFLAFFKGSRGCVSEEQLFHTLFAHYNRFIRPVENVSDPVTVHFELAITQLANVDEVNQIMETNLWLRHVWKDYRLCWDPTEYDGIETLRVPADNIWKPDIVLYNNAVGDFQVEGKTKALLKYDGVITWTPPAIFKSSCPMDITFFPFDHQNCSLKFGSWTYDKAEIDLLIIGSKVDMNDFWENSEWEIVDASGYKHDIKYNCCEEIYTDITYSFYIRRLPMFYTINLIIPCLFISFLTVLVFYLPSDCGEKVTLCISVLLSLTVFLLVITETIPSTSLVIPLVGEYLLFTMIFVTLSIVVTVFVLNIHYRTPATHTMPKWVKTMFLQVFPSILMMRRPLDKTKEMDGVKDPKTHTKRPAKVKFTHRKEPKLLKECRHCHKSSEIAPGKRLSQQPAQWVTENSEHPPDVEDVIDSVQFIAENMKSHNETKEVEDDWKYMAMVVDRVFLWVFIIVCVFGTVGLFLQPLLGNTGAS
test.description: Displacement of [3H]epibatidine from rat alpha6beta2 nAChR expressed in HEK293 cells
experimental.endpoint: Ki (nM)
Numbers only, in nM.

Some compounds with known Ki results, for comparison:
State the recorded Ki for this entry: CN1[C@@H]2CC[C@@H]1[C@@H](c1cncc(-c3cccnc3F)c1)C2 (stereo in doubt; (-)-6b)
0.021

Entry CN1C2CCC1C(c1cncc(-c3ccc(F)nc3)c1)C2 (single isomer, unassigned; (-)) please
0.047

Entry CN1[C@@H]2CC[C@@H]1[C@@H](c1cncc(-c3ccnc(F)c3)c1)C2 (stereo in doubt; (-)-6a) please
0.031

Here's the next entry for you.
State the recorded Ki for this entry: CN1[C@@H]2CC[C@@H]1[C@@H](c1cncc(-c3cccc(F)n3)c1)C2 (stereo in doubt; (-)-6c)
0.95

====

measured.on: Neuronal acetylcholine receptor; alpha4/beta2 (Rattus norvegicus, UniProt P09483+P12390)
Sequence (P09483 whole entry): as the sequence (P09483 whole entry) above
Sequence (P12390 whole entry): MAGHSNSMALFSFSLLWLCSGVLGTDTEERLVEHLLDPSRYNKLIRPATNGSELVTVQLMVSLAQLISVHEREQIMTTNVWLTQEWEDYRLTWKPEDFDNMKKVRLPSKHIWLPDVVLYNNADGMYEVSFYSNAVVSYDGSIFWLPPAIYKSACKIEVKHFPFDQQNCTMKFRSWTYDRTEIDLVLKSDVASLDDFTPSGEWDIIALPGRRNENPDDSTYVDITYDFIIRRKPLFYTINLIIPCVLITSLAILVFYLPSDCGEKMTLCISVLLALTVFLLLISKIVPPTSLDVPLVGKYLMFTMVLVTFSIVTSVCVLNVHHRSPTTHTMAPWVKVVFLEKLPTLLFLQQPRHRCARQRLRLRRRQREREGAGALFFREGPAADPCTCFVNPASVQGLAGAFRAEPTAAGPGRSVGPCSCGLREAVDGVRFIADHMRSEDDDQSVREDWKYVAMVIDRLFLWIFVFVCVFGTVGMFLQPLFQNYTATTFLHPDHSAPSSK
test.description: Displacement of [3H]epibatidine from rat alpha4beta2 nAChR expressed in HEK293 cells
Task for the reader: assign each of the following compounds its reported pKi.
Numbers only, as −log10 of the molar value.

Some compounds with known pKi results, for comparison:
State the recorded pKi for this entry: CN1[C@@H]2CC[C@@H]1[C@@H](c1cncc(-c3cccnc3F)c1)C2 (stereo in doubt; (-)-6b)
10.24

Entry CN1[C@@H]2CC[C@@H]1[C@@H](c1cncc(-c3cccc(F)n3)c1)C2 (stereo in doubt; (-)-6c) please
9.59

Entry CN1[C@@H]2CC[C@@H]1[C@@H](c1cncc(-c3ccnc(F)c3)c1)C2 (stereo in doubt; (-)-6a) please
10.72

Continuing:
State the recorded pKi for this entry: CN1C2CCC1C(c1cncc(-c3ccc(F)nc3)c1)C2 (single isomer, unassigned; (-))
10.96

Source listed as ChEMBL document CHEMBL1155821.
